Known Plant response rating, Ragweed, Common of a selection of compounds
# Tested on: common ragweed (Ambrosia elatior)
# testProtocol: Test C preemergence
# Assay type: in vivo
# setupConditions: preemergence, Rate 62 g/ha, scale 0 to 100
Give your answer as a number; write no unit.

COc1cc(N2CCC(n3ccc(C(C)(C)C)n3)C2=O)ccc1Cl (stereo not shown) [Compound 117]	100
CCCC(C)c1ccn(C2CCN(c3cccc(OCC)c3)C2=O)n1 (stereo not shown) [Compound 129]	0
CCCC(C)c1ccn(C2OCN(c3cccc(C(F)(F)F)c3)C2=O)n1 (stereo not shown) [Compound 89]	0
CCC(C)c1ccn(C2CCN(c3cccc(OC)c3)C2=O)n1 (stereo not shown) [Compound 95]	0
COc1cc(N2CCC(n3ccc(C(C)C)n3)C2=O)ccc1Br (stereo not shown) [Compound 140]	100
CCC(CC)c1ccn(C2CCN(c3cccc(OC(C)C)c3)C2=O)n1 (stereo not shown) [Compound 84]	0
CCOc1cccc(N2CCC(n3ccc(C(C)(C)C)n3)C2=O)c1 (stereo not shown) [Compound 130]	100
CCC(C)c1ccn(C2OCN(c3cccc(OC(F)F)c3)C2=O)n1 (stereo not shown) [Compound 134]	0
CCC(C)c1ccn(C2CCN(c3ccc(F)c(C(F)(F)F)c3)C2=O)n1 (stereo not shown) [Compound 145]	0

// next item, Plant response rating, Ragweed, Common requested
# input Consider the compound shown here: CSc1cccc(N2CCC(n3ccc(C(C)(C)C)n3)C2=O)c1 (stereo not shown) [Compound 86] What is its recorded Plant response rating, Ragweed, Common?
# output 0

Source listed as patent US7138361B2.
